- ASSAYED_SYSTEM: T1, DGI-2 polypeptide (UniProt Q15004 1-111, limits assumed)
- T1 construct: Soluble recombinant protein coated at 500 ng/well; vector tag of pIVEX2.3-MCS not described for this construct; also called KIAA0101
- T1 sequence (looked up): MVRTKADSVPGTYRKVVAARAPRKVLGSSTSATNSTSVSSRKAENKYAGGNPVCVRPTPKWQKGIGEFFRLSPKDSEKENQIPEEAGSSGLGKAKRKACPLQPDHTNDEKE
- ASSAY_NAME: phage ELISA
Threshold check on DGI-2/LDH: at or above 5 ratio gives 1.0, strictly below gives 0.0.

Would you please look over these solved cases?
# BINDER, CLASS_ASSIGNMENT
records = [
    ("MSSTAWTDRILQRGIGLGPVAAAGAPVPYPDPLEPRP [DGI-2-20R-4-F1212]", 0.0),
    ("PVYRVAMCRISVGCSAGAWFAAAGAPVPYPDPLEPRP [DGI-2-20F-PP-C12]", 0.0),
    ("RKGWGVFCIPGLRFCDWSDPAAAGAPVPYPDPLEPRP [DGI-2-20R-3-B4]", 1.0),
    ("FRMWVQSCFWGQPGTGCGEGAAAGAPVPYPDPLEPRP [DGI-2-20R-3-D2]", 1.0),
    ("FRVALLSVSAGPCEGSGNTAAAGAPVPYPDPLEPRP [DGI-2-20F-PP-H7]", 0.0),
]

Please indicate if the recorded DGI-2/LDH for SWACGLLWPGECGSQVARRGAAAGAPVPYPDPLEPRP [DGI-2-20R-3-D127] meets or exceeds 5 ratio.
1.0

Confirm if DGI-2/LDH reported for the binder SVTISTSCRTGCPAGYLRRDAAAGAPVPYPDPLEPRP [DGI-2-20F-PP-D2] is 5 ratio or above.
0.0

Reported DGI-2/LDH at or above 5 ratio? RQRSGGRWVVDRVTRVASTSPAAAGAPVPYPDPLEPRP [DGI-2-20F-PP-B12]
0.0

Determine whether this binder has DGI-2/LDH no lower than 5 ratio: VWAAWVEGSLLSPRQEPVRDAAAGAPVPYPDPLEPRP [DGI-2-20R-4-G4]
1.0

Can SLFERSARSRYHGSPDCNGSAAAGAPVPYPDPLEPRP [DGI-2-20F-PP-A3] be said to have DGI-2/LDH at or above 5 ratio?
0.0

Does DGI-2/LDH meet or surpass 5 ratio for VVRQGCMAFSGLCSGVTESEAAAGAPVPYPDPLEPRP [DGI-2-20R-3-C8] ?
1.0

Item CGGWGAMWEAWVQGLNGAGCAAAGAPVPYPDPLEPRP [DGI-2-20R-3-D4] with DGI-2/LDH of 5 ratio or above?
1.0

FYI, the data here is from patent US7056679.
